# Tested on: CYP2C19
# method_description: clinical
# applied_conditions: human, in vivo, po, 100 ug, tmax (harmonic mean)
# Procedure: This was an open-label clinical trial with fixed sequence design consisting of a total of seven inpatient study days and eight short visits for each participant. The CYP2C19 perpetrator fluconazole (Fluconazol HEXAL® 200 mg, HEXAL) was given for 5 days in oral doses of 400 mg on day 1 and 200 mg on days 2 to 5. […] A diary was used to ensure correct intake of fluconazole and rifampicin at home. […]
test_readout: Tmax

- COc1ccc2[nH]c([S+]([O-])Cc3ncc(C)c(OC)c3C)nc2c1 (stereo not shown) [omeprazole]: 15 min
